Field: inhibition. Provide a value for each of the compounds that follow.
Tested on: Botulinum neurotoxin type F light chain protease (Clostridium botulinum)
Test: Botulinum neurotoxin type F light chain protease inhibition, multiplex microsphere flow cytometry, validation set (AID 588459)
Conditions: multiplex microsphere protease substrate cleavage assay, at 10 µM, active compounds read high
One number for each entry, in %.

Previously resolved entries follow.
CC(=O)N1CCN(c2ccc(NC(=O)/C=C/c3ccccc3)cc2)CC1: 4.3
COc1ccc(C(=O)/C=C/c2cc(C(=O)O)cc3c2OCOC3)c(O)c1: 1.3
c1cnc(N2CCN(Cc3ccc4c(c3)OCO4)CC2)nc1: -2.3
CCCCCC(=O)O[C@]1(C(C)=O)CC[C@H]2[C@@H]3CCC4=CC(=O)CC[C@]4(C)[C@H]3CC[C@@]21C: 1.9

Here is the next item to consider.
Q) Entry CC(C)[C@@]1(NC(=O)[C@@H]2C[C@@H]3c4cccc5[nH]cc(c45)C[C@H]3N(C)C2)O[C@@]2(O)[C@@H]3CCCN3C(=O)[C@H](Cc3ccccc3)N2C1=O : reported inhibition = ?
A) -9.2

Taken from PubChem BioAssay.
